tested on: RPMI-8226; assay: NCI tumour cell line growth inhibition, 48 h
The source made the active and inactive calls. No stated cut-off is given here; in the data, active = GI50 up to about 1.1 µM and inactive = higher.
Tick one outcome: active, inactive

Past entries and their recorded results:
COMPOUND	QUALITATIVE LABEL
COc1ccc2c(c1)CCCN2CCCCCCCCCCN(CCC(C)C)CCC(C)C	inactive
O=C1C2CCN(CC2)C1(CO)CO	inactive

[in] State the result this test recorded for `COc1cccc2cc(C)c(C(=O)c3ccccc3)nc12` .
[out] inactive

[in] Hi, do you know how `CC(=O)Nc1ccc(NS(=O)(=O)c2ccc3nc(C)n(NS(=O)(=O)c4ccc(NC(C)=O)cc4)c(=O)c3c2)cc1` came out in this test?
[out] inactive

====

system: SN12C; assay: NCI tumour cell line growth inhibition, 48 h
Active and inactive are the calls of the source. Rule as the data show it: active = GI50 up to about 1.1 µM and inactive = higher. Non-standard residues stand in square brackets, D forms with d. Residues, ends and D or L forms follow the SMILES beside them. *: point of attachment. X30 = COC1=CC(=O)N(C(=O)[C@@H](O*)C(C)C)[C@H]1Cc1ccccc1; NMeL = CN[C@@H](CC(C)C)C(=O)O; Cbz = O=C(OCc1ccccc1)*
Some compounds, each annotated with its measured GI50.

Check out these entries, answers already filled in.
COMPOUND	SYSTEM NAME	REPORTED ENDPOINT	ASSAY RESULT
CCOC(=O)CC1=Nc2ccccc2SC1	SN12C	GI50	> 100 µM (inactive)
COc1ccc2oc(=N)c(C(=O)Nc3ccccn3)cc2c1	SN12C	GI50	> 100 µM (inactive)

[in] Tell me its GI50 given `O=C(Nc1ccc(F)cc1)c1cc2c(cc1Cl)Sc1nccn1S2(=O)=O` as the entry.
[out] 51.2 µM (inactive)

[in] Return value of GI50 for input COC1=CC(=O)N(C(=O)[C@@H](OC(=O)[C@@H]2CCCN2C(=O)[C@@H]2CCCN2C(=O)[C@H](CC(C)C)N(C)C(=O)[C@@H](NC(=O)[C@@H](NC(=O)OCc2ccccc2)C(C)C)C(C)C)C(C)C)[C@H]1Cc1ccccc1 (Cbz-VV[NMeL]PP-X30) , no commentary.
[out] 34.8 µM (inactive)

====

tested on: MOLT-4; assay: NCI tumour cell line growth inhibition, 48 h
The source made the active and inactive calls. Cut-off read from the data, not from the text of the source: active = GI50 up to about 1.1 µM and inactive = higher.
// allowed return values: active, inactive

COMPOUND	QUALITATIVE LABEL
COc1nc2c(c(=O)[nH]1)N=C(c1ccc(Cl)cc1)CC(c1ccccc1)N2 (centres undefined)	inactive
COc1cccc2c(NNc3ccc(Cl)cc3)c3ccc([N+](=O)[O-])cc3nc12	inactive
C[C@]12CC[C@H]3[C@@H](CCC4=C(Br)C(=O)C=C[C@@]43O)[C@@H]1CCC2=O	inactive
CCCCS(=O)(=O)Nc1ccc(Nc2c3ccccc3nc3ccccc23)c(OC)c1	active
COc1ccccc1/N=N/c1c(O)ccc2ccccc12	inactive

[in] Assay result, entry CC(C)[C@@H]1C=C(c2ccccc2)c2ccccc2C1C(C#N)(C#N)C(C)C (some centres undefined) — outcome?
[out] inactive

[in] Fill in: this test's call for C[C@H]1CC(=O)C[C@@H]2CC[C@@H]3[C@H](CC[C@]4(C)C(OC(=O)c5cccc6c(=O)c7ccccc7[nH]c56)CC[C@@H]34)[C@]21C (some centres undefined) is ___
[out] inactive

[in] Dear colleague, could you share the recorded outcome for `COc1cc(-c2cc(-c3ccccc3)nc(-c3c(OC)ccc4c(C)cc(=O)oc34)c2)cc(OC)c1OC` when you have a moment?
[out] inactive

[in] Kindly provide the recorded test outcome for the following compound: `CCC[C@H](O)[C@@H](CNc1cc(NC(C)=O)nc(NC(C)=O)n1)N(Cc1ccccc1)Cc1ccccc1`
[out] inactive
